- Test system: 186277-243-T-J2-PDC complex spheroid growth;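 also: luminescent signal used as a stand-in for viable cell amount; spheroids exposed to compounds for seven days before the viability read; 100% = DMSO vehicle control wells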
- TEST DESCRIPTION: Anticancer human tumor 186277-243-T-J2-PDC patient-derived colon adenocarcinoma cell line growth inhibition [AhR]
- STUDY CONDITIONS: second compound 10 µM; first compound 0.0316 µM; hits give low values
# viability, T/C per entry

{"MOLECULE": "O=C(c1cc(Cc2n[nH]c(=O)c3ccccc23)ccc1F)N1CCN(C(=O)C2CC2)CC1 + CC(CO)NC(=O)c1cc(-c2ccc(Cl)cc2)nn(-c2cnn(C)c2)c1=O", "viability, T/C [%]": 80}
{"MOLECULE": "O=C(C=Cc1cccc(S(=O)(=O)Nc2ccccc2)c1)NO + Cc1cncc(-c2nc(NCCc3c[nH]c4ccccc34)c3ncn(C(C)C)c3n2)c1", "viability, T/C [%]": 76.9}
{"MOLECULE": "Nc1ccccc1NC(=O)c1ccc(CNC(=O)OCc2cccnc2)cc1 + Cc1cncc(-c2nc(NCCc3c[nH]c4ccccc34)c3ncn(C(C)C)c3n2)c1", "viability, T/C [%]": 42.4}
{"MOLECULE": "O=C(c1cc(Cc2n[nH]c(=O)c3ccccc23)ccc1F)N1CCN(C(=O)C2CC2)CC1 + Cc1ccccc1N=Nc1ccc(NC(=O)c2ccnn2C)c(C)c1", "viability, T/C [%]": 85.6}
{"MOLECULE": "Nc1ncn(C2CC(O)C(CO)O2)c(=O)n1 (stereo not drawn) + Cc1ccccc1N=Nc1ccc(NC(=O)c2ccnn2C)c(C)c1", "viability, T/C [%]": 103}
{"MOLECULE": "CC1COCCN1c1cc(C2(S(C)(=N)=O)CC2)nc(-c2ccnc3[nH]ccc23)n1 (stereo not drawn) + CC(CO)NC(=O)c1cc(-c2ccc(Cl)cc2)nn(-c2cnn(C)c2)c1=O", "viability, T/C [%]": 76.3}
{"MOLECULE": "CC[C@@]1(O)C(=O)OCc2c1cc1n(c2=O)Cc2cc3c(CN(C)C)c(O)ccc3nc2-1 + Cc1cncc(-c2nc(NCCc3c[nH]c4ccccc34)c3ncn(C(C)C)c3n2)c1", "viability, T/C [%]": 31}
{"MOLECULE": "CC1COCCN1c1cc(-c2ccnn2C)c2ccnc(-c3ccn[nH]3)c2n1 (stereo not drawn) + CC(CO)NC(=O)c1cc(-c2ccc(Cl)cc2)nn(-c2cnn(C)c2)c1=O", "viability, T/C [%]": 18.2}
{"MOLECULE": "NS(=O)(=O)OCC1CC(n2ccc3c(NC4CCc5ccccc54)ncnc32)CC1O (stereo not drawn) + Cc1cncc(-c2nc(NCCc3c[nH]c4ccccc34)c3ncn(C(C)C)c3n2)c1", "viability, T/C [%]": 57.8}
{"MOLECULE": "CC1(C)CCC(CN2CCN(c3ccc(C(=O)NS(=O)(=O)c4ccc(NCC5CCOCC5)c([N+](=O)[O-])c4)c(Oc4cnc5[nH]ccc5c4)c3)CC2)=C(c2ccc(Cl)cc2)C1 + Cc1cncc(-c2nc(NCCc3c[nH]c4ccccc34)c3ncn(C(C)C)c3n2)c1", "viability, T/C [%]": 77}
{"MOLECULE": "COc1cccc2c1C(=O)c1c(O)c3c(c(O)c1C2=O)CC(O)(C(=O)CO)CC3OC1CC(N)C(O)C(C)O1 (stereo not drawn) + Cc1cncc(-c2nc(NCCc3c[nH]c4ccccc34)c3ncn(C(C)C)c3n2)c1", "viability, T/C [%]": 21.9}
{"MOLECULE": "Nc1ccccc1NC(=O)c1ccc(CNC(=O)OCc2cccnc2)cc1 + Cc1ccccc1N=Nc1ccc(NC(=O)c2ccnn2C)c(C)c1", "viability, T/C [%]": 82.8}
{"MOLECULE": "NS(=O)(=O)OCC1CC(n2ccc3c(NC4CCc5ccccc54)ncnc32)CC1O (stereo not drawn) + CC(CO)NC(=O)c1cc(-c2ccc(Cl)cc2)nn(-c2cnn(C)c2)c1=O", "viability, T/C [%]": 63.5}
{"MOLECULE": "COc1cc(Nc2ncc3c(n2)-c2ccc(Cl)cc2C(c2c(F)cccc2OC)=NC3)ccc1C(=O)O + CC(CO)NC(=O)c1cc(-c2ccc(Cl)cc2)nn(-c2cnn(C)c2)c1=O", "viability, T/C [%]": 23.6}
{"MOLECULE": "COc1ccc([C@@H](O)c2cc(-c3ncnc4cc(N5CCOCC5)ccc34)c(F)cc2Cl)nn1 + Cc1cncc(-c2nc(NCCc3c[nH]c4ccccc34)c3ncn(C(C)C)c3n2)c1", "viability, T/C [%]": 23.3}
{"MOLECULE": "COc1cccc2c1C(=O)c1c(O)c3c(c(O)c1C2=O)CC(O)(C(=O)CO)CC3OC1CC(N)C(O)C(C)O1 (stereo not drawn) + Cc1ccccc1N=Nc1ccc(NC(=O)c2ccnn2C)c(C)c1", "viability, T/C [%]": 131}
{"MOLECULE": "CC1(C)CCC(CN2CCN(c3ccc(C(=O)NS(=O)(=O)c4ccc(NCC5CCOCC5)c([N+](=O)[O-])c4)c(Oc4cnc5[nH]ccc5c4)c3)CC2)=C(c2ccc(Cl)cc2)C1 + CC(CO)NC(=O)c1cc(-c2ccc(Cl)cc2)nn(-c2cnn(C)c2)c1=O", "viability, T/C [%]": 77.5}
{"MOLECULE": "CC(C)c1c(-c2ccccc2)nc2c(C#N)c[nH]n2c1=O + Cc1ccccc1N=Nc1ccc(NC(=O)c2ccnn2C)c(C)c1", "viability, T/C [%]": 102}
{"MOLECULE": "CC1COCCN1c1cc(C2(S(C)(=N)=O)CC2)nc(-c2ccnc3[nH]ccc23)n1 (stereo not drawn) + Cc1ccccc1N=Nc1ccc(NC(=O)c2ccnn2C)c(C)c1", "viability, T/C [%]": 82.1}
{"MOLECULE": "COc1ccc([C@@H](O)c2cc(-c3ncnc4cc(N5CCOCC5)ccc34)c(F)cc2Cl)nn1 + Cc1ccccc1N=Nc1ccc(NC(=O)c2ccnn2C)c(C)c1", "viability, T/C [%]": 76.3}
{"MOLECULE": "CC1(C)CCC(CN2CCN(c3ccc(C(=O)NS(=O)(=O)c4ccc(NCC5CCOCC5)c([N+](=O)[O-])c4)c(Oc4cnc5[nH]ccc5c4)c3)CC2)=C(c2ccc(Cl)cc2)C1 + Cc1ccccc1N=Nc1ccc(NC(=O)c2ccnn2C)c(C)c1", "viability, T/C [%]": 88.7}
{"MOLECULE": "COc1cc(Nc2ncc3c(n2)-c2ccc(Cl)cc2C(c2c(F)cccc2OC)=NC3)ccc1C(=O)O + Cc1cncc(-c2nc(NCCc3c[nH]c4ccccc34)c3ncn(C(C)C)c3n2)c1", "viability, T/C [%]": 37.9}
{"MOLECULE": "O=C(C=Cc1cccc(S(=O)(=O)Nc2ccccc2)c1)NO + Cc1ccccc1N=Nc1ccc(NC(=O)c2ccnn2C)c(C)c1", "viability, T/C [%]": 89.8}

Reference source for all entries: PubChem BioAssay AID1918991
